Reference source for all entries: patent US20090280138A1

Exercise: for every item that follows, state its recorded iScore.
- experimentalSystem: T1, MHC class I molecule A*0201 (biotin (bound to streptavidin-coated plate))
- T1 construct: also called A2; HLA-A2
- assayRemarks: iTopia iScore
Lab note: record the figure alone, no unit after it.

// Input: VKCVNRNLT [5T4 9-mer peptide 38 VKCVNRNLT] . Output its iScore only.
0

Return iScore (reported value) for this binder: LPSLRHLDL [5T4 9-mer peptide 117 LPSLRHLDL]
0.028

Determine its reported iScore: SPTSSASSF [5T4 9-mer peptide 17 SPTSSASSF]
0

Give recorded iScore. RSFEGMVVA [5T4 9-mer peptide 97 RSFEGMVVA]
0.189
